Ref: patent US20260234157A1

Molecular target: AR protein (Homo sapiens, UniProt P10275, T878A)
Construct: degradation activity of the compounds disclosed in the present disclosure on AR protein in LNCaP cells; host or cells: LNCaP FGC
Assay: Degradation of AR protein in LNCaP cells (Western blot)
Type: cell-based
Settings: LNCaP cells, compound 100 nM, 8 hours, Western blot grayscale, GAPDH internal reference; read-out: Degradation rates of the AR protein in LNCaP cells, 100 nM (%)
Description: The degradation activity of the compounds disclosed in the present disclosure on AR protein in LNCaP cells (cell source: ATCC) Corresponding solvent controls were also set and cultured for 8 hours. After 8 hours of cultivation, the culture medium was removed and the cells were washed with PBS. […] The protein concentration in the extract was detected by BCA method. […] Bands were analyzed in grayscale using Image Studio software. For each sample, GAPDH protein bands were detected as internal reference. […]
Param threshold (60%) applies to inhibition at 0.1 µM; output satisfied when value >= threshold, not satisfied when value < threshold.

[
  {
    "compound": "CCC1(CN2CCC3(CC2)COc2c3ccc3c2C(=O)N(C2CCC(=O)NC2=O)C3=O)CCN(c2ccc(C(=O)N[C@H]3CC[C@H](Oc4ccc(C#N)c(Cl)c4)CC3)nn2)CC1 (stereo partly shown)",
    "class-name": "not satisfied"
  }
]

Please check the record COc1cc(O[C@H]2C(C)(C)[C@H](NC(=O)c3ccc(N4CCC(F)(CN5CCC6(CC5)COc5c6ccc6c5CN(C5CCC(=O)NC5=O)C6=O)CC4)cc3)C2(C)C)ccc1C#N (stereo partly shown) and state if its inhibition at 0.1 µM is at or above 60%.
not satisfied

// repeat for COc1cc(O[C@H]2C(C)(C)[C@H](NC(=O)c3ccc(N4CCC(F)(CN5CCC6(CC5)COc5cc7c(cc5C6)C(=O)N(C5CCC(=O)NC5=O)C7=O)CC4)cc3)C2(C)C)ccc1C#N (stereo partly shown) and report
not satisfied

// repeat for N#Cc1ccc(O[C@H]2CC[C@H](NC(=O)c3ccc(N4CCC5(CCC(N6CCC7(CCc8cc9c(cc8O7)C(=O)N(C7CCC(=O)NC7=O)C9=O)CC6)CC5)CC4)nn3)CC2)cc1Cl (stereo partly shown) and report
satisfied

// repeat for N#Cc1ccc(O[C@H]2CC[C@H](NC(=O)c3ccc(N4CCC(CN5CC6(CCc7cc8c(cc7O6)C(=O)N(C6CCC(=O)NC6=O)C8)C5)CC4)nn3)CC2)cc1Cl (stereo partly shown) and report
satisfied

// repeat for COc1cc(O[C@H]2C(C)(C)[C@H](NC(=O)c3ccc(N4CCC(CN5CCC6(CCc7cc8c(cc7O6)C(=O)N(C6CCC(=O)NC6=O)C8=O)CC5)CC4)cc3)C2(C)C)ccc1C#N (stereo partly shown) and report
satisfied

----------
Kindly state inhibition at 0.1 µM for each of the entries shown.
Target: AR protein (Homo sapiens, UniProt P10275)
Construct: degradation activity of the compounds disclosed in the present disclosure on AR protein in VCaP cells; host or cells: VCaP
Sequence (P10275 1-920): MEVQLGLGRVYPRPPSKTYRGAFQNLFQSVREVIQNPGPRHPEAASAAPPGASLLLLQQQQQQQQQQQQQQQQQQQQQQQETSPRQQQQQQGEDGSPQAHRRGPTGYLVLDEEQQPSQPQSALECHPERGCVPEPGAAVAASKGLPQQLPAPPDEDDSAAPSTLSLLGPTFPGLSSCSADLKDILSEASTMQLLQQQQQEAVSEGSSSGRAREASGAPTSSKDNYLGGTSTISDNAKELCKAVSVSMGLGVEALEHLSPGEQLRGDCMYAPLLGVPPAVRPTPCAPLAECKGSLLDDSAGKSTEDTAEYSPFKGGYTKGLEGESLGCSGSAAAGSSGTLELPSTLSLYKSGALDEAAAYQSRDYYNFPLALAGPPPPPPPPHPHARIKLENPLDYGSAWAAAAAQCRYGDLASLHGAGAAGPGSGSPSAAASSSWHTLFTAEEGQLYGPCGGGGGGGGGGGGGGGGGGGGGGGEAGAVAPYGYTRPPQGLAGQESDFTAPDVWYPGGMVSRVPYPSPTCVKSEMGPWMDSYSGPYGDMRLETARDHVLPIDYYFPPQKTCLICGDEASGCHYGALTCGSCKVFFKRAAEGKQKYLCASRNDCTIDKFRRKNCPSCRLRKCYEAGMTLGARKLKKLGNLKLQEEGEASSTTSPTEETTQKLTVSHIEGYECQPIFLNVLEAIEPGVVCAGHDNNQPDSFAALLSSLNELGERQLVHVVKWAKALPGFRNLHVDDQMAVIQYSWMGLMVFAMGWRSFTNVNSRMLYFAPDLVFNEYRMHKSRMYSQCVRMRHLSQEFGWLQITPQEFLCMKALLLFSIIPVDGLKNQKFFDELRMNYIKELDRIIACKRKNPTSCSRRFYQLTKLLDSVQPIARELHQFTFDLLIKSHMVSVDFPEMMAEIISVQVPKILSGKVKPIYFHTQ
Assay: Degradation of AR protein in VCaP cells (Western blot)
Assay type: cell-based
Details: compound at 100 nM, 8 hours, read-out: Degradation rate of the AR protein in VCaP cells, 100 nM (%)
One number for each entry, in %.

Observe how each entry below is paired with its result.
[
  {
    "compound": "C[C@H]1CN(c2ccc(C(=O)N[C@H]3CC[C@H](Oc4ccc(C#N)c(Cl)c4)CC3)nn2)C[C@@H]1CN1CCC2(CC1)COc1c2ccc2c1CN(C1CCC(=O)NC1=O)C2=O (some centres unmarked)",
    "unit-string": "%",
    "inhibition at 0.1 µM": 82
  },
  {
    "compound": "N#Cc1ccc(O[C@H]2CC[C@H](NC(=O)c3ccc(N4CC(N5CCC6(CCc7cc8c(cc7O6)C(=O)N(C6CCC(=O)NC6=O)C8)CC5)C4)nn3)CC2)cc1Cl (some centres unmarked)",
    "unit-string": "%",
    "inhibition at 0.1 µM": 59
  },
  {
    "compound": "N#Cc1ccc(O[C@H]2CC[C@H](NC(=O)c3ccc(N4CCC5(CCc6cc7c(cc6O5)C(=O)N(C5CCC(=O)NC5=O)C7=O)CC4)nn3)CC2)cc1Cl (some centres unmarked)",
    "unit-string": "%",
    "inhibition at 0.1 µM": 35
  },
  {
    "compound": "N#Cc1ccc(O[C@H]2CC[C@H](NC(=O)c3ccc(N4CCC(N5CCC6(CCc7cc8c(cc7O6)C(=O)N(C6CCC(=O)NC6=O)C8=O)CC5)C(F)(F)C4)nn3)CC2)cc1Cl (some centres unmarked)",
    "unit-string": "%",
    "inhibition at 0.1 µM": 44
  }
]

Turning to the following compound.
Can you share its inhibition at 0.1 µM? I mean this compound: COc1cc(O[C@H]2C(C)(C)[C@H](NC(=O)c3ccc(N4CCC(C)(CN5CCC6(CC5)COc5c(ccc7c5C(=O)N(C5CCC(=O)NC5=O)C7)C6)CC4)cc3)C2(C)C)ccc1C#N (some centres unmarked)
74

----------
biological target: AR protein (Homo sapiens); construct: degradation activity of the compounds disclosed in the present disclosure on AR protein in VCaP cells; host or cells: VCaP; experiment: Degradation of AR protein in VCaP cells (Western blot); type: cell-based; settings: compound at 10 nM, 8 hours, read-out: Degradation rate of the AR protein in VCaP cells, 10 nM (%)
test-readout: inhibition at 0.01 µM (%)
One number for each entry, in %.

Observe how each entry below is paired with its result.
[
  {
    "molecule": "COc1cc(O[C@H]2C(C)(C)[C@H](NC(=O)c3ccc(N4CCC(C)(CN5CCC6(CCc7ccc8c(c7O6)CN(C6CCC(=O)NC6=O)C8=O)CC5)CC4)cc3)C2(C)C)ccc1C#N (stereo partly drawn)",
    "assay-system": "AR protein (Homo sapiens)",
    "inhibition at 0.01 µM (%)": 2
  },
  {
    "molecule": "N#Cc1ccc(O[C@H]2CC[C@H](NC(=O)c3ccc(N4CC(N5CCC6(CCc7cc8c(cc7O6)CN(C6CCC(=O)NC6=O)C8=O)CC5)C4)nn3)CC2)cc1Cl (stereo partly drawn)",
    "assay-system": "AR protein (Homo sapiens)",
    "inhibition at 0.01 µM (%)": 45
  }
]

Turning to the following molecule.
Can you share its inhibition at 0.01 µM? I mean this molecule: N#Cc1ccc(O[C@H]2CC[C@H](NC(=O)c3ccc(N4CCC5(CC4)CC(N4CCC6(CCc7cc8c(cc7O6)C(=O)N(C6CCC(=O)NC6=O)C8=O)CC4)C5)nn3)CC2)cc1Cl (stereo partly drawn)
67

----------
Target: AR protein (Homo sapiens)
Construct: degradation activity of the compounds disclosed in the present disclosure on AR protein in VCaP cells; host or cells: VCaP
Sequence (P10275 1-920): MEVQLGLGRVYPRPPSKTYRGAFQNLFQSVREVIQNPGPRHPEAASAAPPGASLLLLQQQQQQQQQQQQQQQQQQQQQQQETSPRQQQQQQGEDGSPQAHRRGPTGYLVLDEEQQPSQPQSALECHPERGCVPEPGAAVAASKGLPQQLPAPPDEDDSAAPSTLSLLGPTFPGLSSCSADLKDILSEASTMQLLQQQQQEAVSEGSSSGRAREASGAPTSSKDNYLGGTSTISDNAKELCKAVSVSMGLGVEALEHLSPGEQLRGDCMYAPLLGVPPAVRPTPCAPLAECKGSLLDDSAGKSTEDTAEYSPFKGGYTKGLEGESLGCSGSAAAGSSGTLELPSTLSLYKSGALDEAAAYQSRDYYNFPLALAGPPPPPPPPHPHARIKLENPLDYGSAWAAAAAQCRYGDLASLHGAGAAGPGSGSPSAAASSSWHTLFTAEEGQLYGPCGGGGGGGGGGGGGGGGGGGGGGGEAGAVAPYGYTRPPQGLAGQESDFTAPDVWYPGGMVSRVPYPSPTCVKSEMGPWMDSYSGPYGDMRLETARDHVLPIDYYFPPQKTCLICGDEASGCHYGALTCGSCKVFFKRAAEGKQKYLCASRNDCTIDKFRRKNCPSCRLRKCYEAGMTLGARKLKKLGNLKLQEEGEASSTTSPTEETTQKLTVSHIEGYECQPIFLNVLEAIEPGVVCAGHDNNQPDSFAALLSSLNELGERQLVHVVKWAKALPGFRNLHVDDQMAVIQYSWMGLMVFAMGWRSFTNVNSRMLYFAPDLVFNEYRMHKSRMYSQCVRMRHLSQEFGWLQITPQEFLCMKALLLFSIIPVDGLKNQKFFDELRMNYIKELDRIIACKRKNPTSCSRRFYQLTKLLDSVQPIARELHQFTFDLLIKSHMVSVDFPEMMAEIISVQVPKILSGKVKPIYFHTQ
Test: Degradation of AR protein in VCaP cells (Western blot)
Assay type: cell-based
Conditions: compound at 100 nM, 8 hours, read-out: Degradation rate of the AR protein in VCaP cells, 100 nM (%)
Kindly state inhibition at 0.1 µM for each of the entries shown.
Numbers only, in %.

Observe how each entry below is paired with its result.
[
  {
    "compound": "COc1cc(O[C@H]2CC[C@H](NC(=O)c3ccc(N4CCC(C#N)(CN5CCC6(CC5)COc5c6ccc6c5C(=O)N(C5CCC(=O)NC5=O)C6=O)CC4)nn3)CC2)ccc1C#N (some centres unmarked) [Compound 229]",
    "assay-system": "AR protein (Homo sapiens)",
    "unit-string": "%",
    "inhibition at 0.1 µM": 73
  },
  {
    "compound": "COC1(CN2CCC3(CC2)COc2cc4c(cc2C3)C(=O)N(C2CCC(=O)NC2=O)C4=O)CCN(c2ccc(C(=O)NC3CCC(Oc4ccc(C#N)c(Cl)c4)CC3)nn2)CC1 (centres unmarked) [Compound 69]",
    "assay-system": "AR protein (Homo sapiens)",
    "unit-string": "%",
    "inhibition at 0.1 µM": 78
  },
  {
    "compound": "COc1cc(O[C@H]2CC[C@H](NC(=O)c3ccc(N4CCC(F)(CN5CC6(CCc7cc8c(cc7O6)CN(C6CCC(=O)NC6=O)C8=O)C5)CC4)nn3)CC2)ccc1C#N (some centres unmarked) [Compound 209]",
    "assay-system": "AR protein (Homo sapiens)",
    "unit-string": "%",
    "inhibition at 0.1 µM": 67
  }
]

Value sought for every listed compound: inhibition at 0.1 µM.
1. N#Cc1ccc(O[C@H]2CC[C@H](NC(=O)c3ccc(N4CC5(CCC(C(=O)N6CCC7(CC6)COc6c7ccc7c6CN(C6CCC(=O)NC6=O)C7=O)CC5)C4)nn3)CC2)cc1Cl (some centres unmarked) [Compound 255]
2. CC1(C)[C@H](NC(=O)c2ccc(N3CCC(CN4CCC5(CC4)COc4c5ccc5c4CN(C4CCC(=O)NC4=O)C5=O)CC3)nn2)C(C)(C)[C@H]1Oc1ccc(C#N)c(Cl)c1 (some centres unmarked) [Compound 210]

1. 82
2. 71
